# assay_system: Interferon-induced, double-stranded RNA-activated protein kinase (Homo sapiens)
# assay_overview: Inhibition of human recombinant PKR autophosphorylation using poly[I:C] after 10 mins by luminescent assay
pIC50: −log10 of the molar value.
Quick list: pIC50 per entry.

Value of pIC50 reported for the compound COC(=O)c1ccc2c(-c3ccnc(SCCN(C)C)n3)c[nH]c2c1 is < 4.00

Value of pIC50 reported for the compound O=C1Nc2ccccc2/C1=C1/Nc2ccccc2/C1=N\OCCC(O)CO (stereo not drawn) is > 7.00

Value of pIC50 reported for the compound Fc1ccc(N2CCN(c3nccc(-c4c[nH]c5ccccc45)n3)CC2)cc1 is < 4.00

----------
# assay_system: Interferon-induced, double-stranded RNA-activated protein kinase (Homo sapiens, UniProt P19525)
# Sequence (P19525 whole entry): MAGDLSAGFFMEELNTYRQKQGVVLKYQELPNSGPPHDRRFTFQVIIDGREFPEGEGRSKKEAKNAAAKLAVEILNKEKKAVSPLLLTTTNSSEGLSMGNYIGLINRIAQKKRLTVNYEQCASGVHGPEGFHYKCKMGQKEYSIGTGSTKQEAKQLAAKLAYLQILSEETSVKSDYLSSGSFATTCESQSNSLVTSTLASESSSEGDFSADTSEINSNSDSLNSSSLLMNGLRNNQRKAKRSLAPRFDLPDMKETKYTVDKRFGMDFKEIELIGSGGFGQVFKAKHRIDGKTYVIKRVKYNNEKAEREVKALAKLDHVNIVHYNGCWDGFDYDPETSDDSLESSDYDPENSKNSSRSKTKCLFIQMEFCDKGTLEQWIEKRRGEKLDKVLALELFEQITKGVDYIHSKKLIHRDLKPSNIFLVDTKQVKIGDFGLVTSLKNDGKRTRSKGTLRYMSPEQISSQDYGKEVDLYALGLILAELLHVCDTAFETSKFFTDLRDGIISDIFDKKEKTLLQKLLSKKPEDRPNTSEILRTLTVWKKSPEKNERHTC
# assay_overview: Inhibition of human recombinant PKR autophosphorylation using poly[I:C] after 10 mins by luminescent assay
pIC50: −log10 of the molar value.
result_type: pIC50

1) Cc1[nH]c2ccccc2c1-c1ccnc(N2CCCC2)n1 :: < 4.00

Value of pIC50 reported for the molecule N#C/C(=C1/Nc2ccccc2S1)c1ccnc(NCCc2cccnc2)n1 is > 7.00

Value of pIC50 reported for the molecule COC(=O)[C@]1(O)C[C@@H]2O[C@@]1(C)n1c3ccccc3c3c4c(c5c6ccccc6n2c5c31)C(=O)NC4 (single isomer, unassigned) is > 7.00

----------
# assay_system: Interferon-induced, double-stranded RNA-activated protein kinase (Homo sapiens)
# assay_overview: Inhibition of human recombinant PKR autophosphorylation using poly[I:C] after 10 mins by luminescent assay
pIC50: −log10 of the molar value.
result_type: pIC50

Record excerpt, results attached:
1) Cc1[nH]c2ccc(Cl)cc2c1-c1ccnc(N2CCN(c3ccc(F)cc3)CC2)n1 :: < 4.00
2) c1ccc(-c2[nH]c3ccccc3c2-c2ccnc(NC3CCCC3)n2)cc1 :: < 4.00
3) O=Nc1c(-c2c(O)[nH]c3ccccc23)[nH]c2ccccc12 :: > 7.00
4) O=C(O)c1ccc2c3c1cccc3c(=O)n1c3ccccc3nc21 :: > 7.00
5) COc1ccc2[nH]cc(-c3ccnc(NCCN4CCOCC4)n3)c2c1 :: < 4.00

# value of pIC50, Interferon-induced, double-stranded RNA-activated protein kinase (Homo sapiens), item Cc1[nH]c2ccccc2c1-c1ccnc(N2CCN(c3ccccn3)CC2)n1 = < 4.00
